Reference source: PubChem BioAssay AID1902

Target: S. pyogenes SKKanGAS, kanamycin survival, BacTiterGlo, 6 h
Assay: S. pyogenes SKKanGAS kanamycin growth inhibitors – SKKanGAS strain, luminescence, dose confirmation, streptokinase promoter inhibitor project, dose response (AID 1902);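 note: lower survival reflects blocked streptokinase promoter driving kanamycin resistance gene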
Property measured: EC50

CCCC(=O)NC(c1ccco1)c1cc(Cl)c2cccnc2c1O (stereo not given)	1.5 µM
Cc1nn2c(NCc3ccccn3)cc(C(C)C)nc2c1-c1ccccc1	5.94 µM

Entry under review: `COc1cccc2c1C(=O)c1c(O)c3c(c(O)c1C2=O)C[C@@](O)(C(=O)CO)C[C@@H]3O[C@H]1C[C@H](N)[C@H](O)[C@H](C)O1` . Reported EC50? 1.15 µM

Follow-up entry: `COc1ccc(C(=O)NC(=S)NNC(=O)c2ccco2)cc1` 4.48 µM

Follow-up entry: `FC(F)(F)c1cc(-c2ccco2)nc(NCc2ccc(Cl)cc2)n1` 7.1 µM

Follow-up entry: `O=C(NNC(=S)NC(=O)c1ccc(Br)cc1)c1cccc([N+](=O)[O-])c1` 0.892 µM

Follow-up entry: `Cc1n[nH]c(C)c1CCOc1ccc(C(C)C)cc1` 11.2 µM

Follow-up entry: CC(C)C(NC(=O)C(c1ccccc1)c1ccccc1)c1nc2ccccc2[nH]1 (stereo not given) 2.96 µM

Follow-up entry: `Cc1cccc(/C=C/C(=O)c2ccc([N+](=O)[O-])o2)c1` 4.81 µM

Follow-up entry: `CCOC(=O)c1cc(-c2ccc(OC(F)F)cc2)nc2c1c(=O)[nH]c(=O)n2C` 0.392 µM
